biological target: human GYS1 (Homo sapiens (Human)); test: GYS1 coupled enzyme assay (PK/LDH); conditions: recombinant hGYS1/GN1 protein; geometric mean of at least 2 assay runs
Sequence (P13807 whole entry): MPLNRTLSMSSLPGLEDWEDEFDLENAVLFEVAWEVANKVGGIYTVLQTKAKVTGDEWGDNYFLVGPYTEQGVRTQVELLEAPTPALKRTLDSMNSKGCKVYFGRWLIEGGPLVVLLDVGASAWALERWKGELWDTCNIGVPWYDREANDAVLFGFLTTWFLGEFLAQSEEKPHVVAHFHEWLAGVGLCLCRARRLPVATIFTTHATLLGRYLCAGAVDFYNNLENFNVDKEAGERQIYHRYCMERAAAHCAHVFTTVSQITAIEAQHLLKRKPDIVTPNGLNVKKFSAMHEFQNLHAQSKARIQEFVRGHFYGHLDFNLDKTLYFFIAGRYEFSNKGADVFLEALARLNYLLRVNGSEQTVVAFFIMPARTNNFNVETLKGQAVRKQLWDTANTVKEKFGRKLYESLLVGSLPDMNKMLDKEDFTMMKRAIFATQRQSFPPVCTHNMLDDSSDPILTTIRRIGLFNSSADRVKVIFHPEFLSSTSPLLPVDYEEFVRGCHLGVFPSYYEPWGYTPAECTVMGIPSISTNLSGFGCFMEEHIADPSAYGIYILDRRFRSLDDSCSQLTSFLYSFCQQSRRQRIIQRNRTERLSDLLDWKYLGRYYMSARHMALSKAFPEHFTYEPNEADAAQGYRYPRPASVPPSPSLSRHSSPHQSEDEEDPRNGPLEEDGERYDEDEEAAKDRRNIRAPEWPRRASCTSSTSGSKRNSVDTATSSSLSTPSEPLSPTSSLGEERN
Sequence (P46976 whole entry partner): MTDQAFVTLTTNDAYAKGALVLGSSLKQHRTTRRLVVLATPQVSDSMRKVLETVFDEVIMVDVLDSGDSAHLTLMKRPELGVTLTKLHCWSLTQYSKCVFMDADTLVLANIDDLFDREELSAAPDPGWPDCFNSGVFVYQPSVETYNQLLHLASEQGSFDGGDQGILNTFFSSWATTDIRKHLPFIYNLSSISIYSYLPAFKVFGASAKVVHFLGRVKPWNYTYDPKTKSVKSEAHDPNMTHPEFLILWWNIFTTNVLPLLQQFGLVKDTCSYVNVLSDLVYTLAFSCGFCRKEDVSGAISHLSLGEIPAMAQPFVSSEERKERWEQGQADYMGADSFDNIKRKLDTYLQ

# COMPOUND, EXPERIMENTAL TARGET, CMP, IC50 (µM)
measured = [
    ("CC(C)c1ccc(C(NC(=O)C2CCCC2C(=O)O)c2cccs2)cc1 (single isomer, unassigned) [Compound 46]", "human GYS1 (Homo sapiens (Human))", ">", 99.9),
    ("O=C(O)[C@H]1CCC[C@H]1C(=O)N[C@@H](c1ccccc1)c1ccc(C2CC2)cn1", "human GYS1 (Homo sapiens (Human))", "=", 1.73),
    ("CC(C)c1ccc([C@@H](NC(=O)C2CCC(C(=O)O)C2)c2ccccc2)cc1 (single isomer, unassigned)", "human GYS1 (Homo sapiens (Human))", "=", 3.13),
    ("CC(C)c1ccc([C@@H](NC(=O)[C@@H]2CCC[C@@H]2C(=O)O)c2ccc3cn[nH]c3c2)nc1F", "human GYS1 (Homo sapiens (Human))", "=", 0.084),
]

Data origin: patent US20260021085A1
